biological target: Endothelin-1 receptor (Homo sapiens); assay type: cell membranes, CHO-K1, Membrane; settings: cho-k1; further: in other assays of this panel Not Active means under 50% inhibition at 10 µM
Sequence (P25101 whole entry): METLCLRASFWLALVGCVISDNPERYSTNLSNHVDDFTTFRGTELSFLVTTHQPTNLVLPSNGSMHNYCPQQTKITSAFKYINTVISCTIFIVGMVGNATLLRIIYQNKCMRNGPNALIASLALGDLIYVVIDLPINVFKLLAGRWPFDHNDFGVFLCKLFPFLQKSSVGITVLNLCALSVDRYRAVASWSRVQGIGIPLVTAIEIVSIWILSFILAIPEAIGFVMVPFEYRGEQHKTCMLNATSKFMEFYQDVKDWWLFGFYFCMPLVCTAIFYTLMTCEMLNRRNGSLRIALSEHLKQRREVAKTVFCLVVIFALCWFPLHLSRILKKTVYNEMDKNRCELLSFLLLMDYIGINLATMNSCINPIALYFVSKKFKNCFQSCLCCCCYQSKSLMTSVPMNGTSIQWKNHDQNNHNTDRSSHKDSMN
observedProperty: IC50

>>> df
                                   compound                          systemtested  experimentalvalue
0  C[C@H]1c2cccc(O)c2C(=O)C2=C(O)[C@]3(O)C(=O)C(C(N)=O)=C(O)[C@@H](N(C)C)[C@@H]3[C@@H](O)[C@@H]21.O  Endothelin-1 receptor (Homo sapiens)         Not Active
1  NS(=O)(=O)c1cc2c(cc1Cl)NC(C(Cl)Cl)NS2(=O)=O (centres undefined) [TRICHLORMETHIAZIDE]  Endothelin-1 receptor (Homo sapiens)         Not Active
2                COc1nc(C)nc(Cl)c1NC1=NCCN1  Endothelin-1 receptor (Homo sapiens)         Not Active
3  C1CCC(C(CC2CCCCN2)C2CCCCC2)CC1 (centres undefined)  Endothelin-1 receptor (Homo sapiens)         Not Active

====

Below is a list of entries, each paired with its recorded IC50 value.
biological target: Sodium-dependent dopamine transporter (Homo sapiens); assay: DRUGMATRIX: Dopamine Transporter radioligand binding (ligand: [125I] RTI-55); format: cell membranes, CHO-K1, Membrane; conditions: Not Active = under 50% inhibition at 10 µM; read-out: IC50
Sequence (Q01959 whole entry): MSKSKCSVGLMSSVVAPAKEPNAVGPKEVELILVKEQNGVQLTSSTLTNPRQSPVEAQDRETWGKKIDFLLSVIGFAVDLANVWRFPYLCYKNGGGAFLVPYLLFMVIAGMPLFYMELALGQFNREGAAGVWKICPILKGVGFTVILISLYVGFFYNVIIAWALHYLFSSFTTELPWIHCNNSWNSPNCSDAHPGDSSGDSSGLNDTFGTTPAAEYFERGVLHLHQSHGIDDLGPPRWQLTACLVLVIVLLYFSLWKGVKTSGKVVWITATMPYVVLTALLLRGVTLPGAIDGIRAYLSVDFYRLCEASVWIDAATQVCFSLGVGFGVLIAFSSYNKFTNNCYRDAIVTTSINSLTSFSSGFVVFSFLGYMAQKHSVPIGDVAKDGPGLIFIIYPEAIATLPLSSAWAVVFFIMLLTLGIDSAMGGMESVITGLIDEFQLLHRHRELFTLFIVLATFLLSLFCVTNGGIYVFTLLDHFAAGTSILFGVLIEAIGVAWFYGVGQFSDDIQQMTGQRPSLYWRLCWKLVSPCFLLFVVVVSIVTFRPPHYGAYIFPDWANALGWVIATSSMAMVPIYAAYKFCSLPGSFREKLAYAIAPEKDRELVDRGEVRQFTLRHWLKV

IC50 reported for this compound Cc1ccc(-c2cc(C(F)(F)F)nn2-c2ccc(S(N)(=O)=O)cc2)cc1 [CELECOXIB] : 2.43 µM

====

target: Cytochrome P450 2A6 (Homo sapiens, UniProt P11509); details: bti-tn-5b1-4; further: in other assays of this panel Not Active means under 50% inhibition at 10 µM
Sequence (P11509 whole entry): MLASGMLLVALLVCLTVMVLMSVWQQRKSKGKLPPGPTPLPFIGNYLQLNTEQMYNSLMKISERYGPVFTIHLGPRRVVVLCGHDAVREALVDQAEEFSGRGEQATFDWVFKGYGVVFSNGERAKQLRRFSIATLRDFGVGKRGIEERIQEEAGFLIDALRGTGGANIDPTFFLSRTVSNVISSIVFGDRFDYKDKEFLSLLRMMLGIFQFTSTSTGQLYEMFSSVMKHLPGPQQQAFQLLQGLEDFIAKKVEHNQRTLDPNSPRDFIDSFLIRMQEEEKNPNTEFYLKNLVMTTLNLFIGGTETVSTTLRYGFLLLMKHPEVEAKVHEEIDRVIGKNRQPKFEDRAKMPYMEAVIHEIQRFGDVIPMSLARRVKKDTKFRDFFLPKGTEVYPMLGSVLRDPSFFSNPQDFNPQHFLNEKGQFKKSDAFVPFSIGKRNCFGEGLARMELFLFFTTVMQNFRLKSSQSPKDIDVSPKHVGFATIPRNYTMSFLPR
observedProperty: IC50

compound	systemTested	experimentalValue
CO[C@H]1/C=C/O[C@@]2(C)Oc3c(C)c(O)c4c(O)c(c(/C=N/N5CCN(C)CC5)c(O)c4c3C2=O)NC(=O)/C(C)=C\C=C\[C@H](C)[C@H](O)[C@@H](C)[C@@H](O)[C@@H](C)[C@H](OC(C)=O)[C@@H]1C	Cytochrome P450 2A6 (Homo sapiens, UniProt P11509)	Not Active
CC1(C)O[C@@H]2C[C@H]3[C@@H]4CCC5=CC(=O)C=C[C@]5(C)[C@@]4(F)[C@@H](O)C[C@]3(C)[C@]2(C(=O)CO)O1 [TRIAMCINOLONE ACETONIDE]	Cytochrome P450 2A6 (Homo sapiens, UniProt P11509)	Not Active

====

test: DRUGMATRIX: Glutamate, AMPA radioligand binding (ligand: [3H] AMPA); assay type: cell membranes, Rattus norvegicus, Wistar, Cerebral cortex, Membrane; conditions: Not Active = under 50% inhibition at 10 µM
observedProperty: IC50

Consider the worked cases shown below.
molecule	IC50
COc1cc2nc(N3CCN(C(=O)C4COc5ccccc5O4)CC3)nc(N)c2cc1OC (stereo unspecified) [DOXAZOSIN]	Not Active
CC1(C)S[C@@H]2[C@H](NC(=O)Cc3ccccc3)C(=O)N2[C@H]1C(=O)O [PENICILLIN G]	Not Active
C[C@H]1c2cccc(O)c2C(=O)C2=C(O)[C@]3(O)C(=O)C(C(N)=O)=C(O)[C@@H](N(C)C)[C@@H]3[C@@H](O)[C@@H]21.O [DOXYCYCLINE]	Not Active
Cc1ccccc1N1C(=O)c2cc(S(N)(=O)=O)c(Cl)cc2NC1C (stereo unspecified) [METOLAZONE]	Not Active

IC50 reported for this molecule COc1ccc(C[C@H]2NC[C@H](O)[C@H]2OC(C)=O)cc1 [ANISOMYCIN] : Not Active

meta.source: ChEMBL document CHEMBL1909046
